Catalogue of Ki values
Target: UniProt:P04070
Sequence (P04070 43-197 limits assumed): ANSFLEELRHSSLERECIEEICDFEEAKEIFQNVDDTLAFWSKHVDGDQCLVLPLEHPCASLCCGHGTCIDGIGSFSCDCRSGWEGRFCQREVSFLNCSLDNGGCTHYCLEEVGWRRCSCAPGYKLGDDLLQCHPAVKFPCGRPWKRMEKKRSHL
Sequence (P04070 212-461 limits assumed): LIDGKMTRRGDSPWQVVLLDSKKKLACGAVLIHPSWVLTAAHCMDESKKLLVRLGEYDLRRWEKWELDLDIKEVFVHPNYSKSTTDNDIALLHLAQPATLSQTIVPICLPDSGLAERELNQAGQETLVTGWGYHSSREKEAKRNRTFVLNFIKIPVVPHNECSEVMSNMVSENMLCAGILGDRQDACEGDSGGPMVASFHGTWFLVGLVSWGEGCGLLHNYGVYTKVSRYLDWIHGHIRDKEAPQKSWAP
Assay: Inhibition of human activated protein C

For the compound COc1ccc(-n2nc(C(N)=O)cc2C(=O)Cc2ccc(-n3ccccc3=O)cc2F)cc1 , what Ki is on record? > 38 µM

And then CN(C)Cc1nccn1-c1ccc(NC(=O)c2cc(C(F)(F)F)nn2-c2ccc3onc(N)c3c2)c(F)c1 , what is it? > 20 µM

----------
Target: Trypsin (Homo sapiens, UniProt P07477+P07478+P35030)
Test: Inhibition of human trypsin
Format: protein assay
Readout Type: Ki

Which Ki value belongs to CC(C(=O)c1cc(C(F)(F)F)nn1-c1ccc2onc(N)c2c1)c1ccc(-c2ccccc2S(N)(=O)=O)cc1F (racemic) ? > 20 µM

Next: COc1ccc(-n2nc(C(F)(F)F)cc2C(=O)Cc2ccc(-c3ccccc3CN3CC[C@H](O)C3)cc2)cc1 > 4.2 µM

Next record, please: Nc1noc2ccc(-n3nc(C(F)(F)F)cc3C(=O)Cc3ccc(-c4ccccc4CN4CCCC4)cc3)cc12 > 4.2 µM

Try this molecule next: CC(C(=O)c1cc(C(F)(F)F)nn1-c1ccc2onc(N)c2c1)c1ccc(-c2ccccc2S(C)(=O)=O)cc1F (racemic) > 20 µM

Another molecule to look at: Nc1noc2ccc(-n3nc(C(F)(F)F)cc3C(=O)Cc3ccc(-n4ccccc4=O)cc3F)cc12 > 15 µM

Repeat with COc1ccc(-n2nc(C(F)(F)F)cc2C(=O)Cc2ccc(-c3ccccc3S(N)(=O)=O)cc2)cc1 > 2.5 µM

Cool, now Nc1noc2ccc(-n3nc(C(F)(F)F)cc3C(=O)Cc3ccc(-c4ccccc4S(N)(=O)=O)cc3F)cc12 > 20 µM

Same question, CN(C)Cc1nccn1-c1ccc(CC(=O)c2cc(C(F)(F)F)nn2-c2ccc3onc(N)c3c2)cc1 this time > 4.2 µM
